biological target: human DHODH (Homo sapiens); assay: DHODH Enzymatic Assay; details: purified human DHODH; DCIP absorbance, end-point mode
experimental_readout: pEC50
# pEC50 is unitless: minus log10 of the molar concentration; print number only

Using the record for CCn1c(CO)nn(-c2nc(O[C@@H](C)C(F)(F)F)c(C(=O)Nc3c(C)nsc3C)cc2F)c1=O , state its measured pEC50.
8.72

More entries:
Write down pEC50 measured for item CCn1c(CO)nn(-c2nc(OC(C)C)c(C(=O)Nc3c(C)cnc(OC)c3Cl)cc2F)c1=O
8.94

Note down pEC50 recorded for CCn1c(CO)nn(-c2nc(O[C@@H](C)C(F)(F)F)c(C(=O)Nc3cc(OC)ncc3C)cc2F)c1=O
8.00

Determine its reported pEC50: CCn1c(CO)nn(-c2nc(O[C@@H](C)C(F)(F)F)c(C(=O)Nc3cnsc3)cc2F)c1=O
6.49

Give reported pEC50 value for CCn1c(C(C)(C)O)nn(-c2nc(O[C@@H](C)C(F)(F)F)c(C(=O)Nc3c(C)n[nH]c3C(F)(F)F)cc2F)c1=O
8.02

Kindly indicate its recorded pEC50. Item: CCn1c(CO)nn(-c2nc(O[C@@H](C)C(F)(F)F)c(C(=O)Nc3cc(C)cnc3OC)cc2F)c1=O
7.76

Give the value of pEC50 reported for the following: CCn1c(CF)nn(-c2nc(O[C@@H](C)C(F)(F)F)c(C(=O)Nc3c(C)ccnc3Cl)cc2F)c1=O
9.35

---

system: MOLM-13 cells; test: MOLM-13 Cellular Assay; assay type: cell-based; settings: Homo sapiens, 72 hours exposure, cell viability by CellTiter-Glo
The entries below are paired with their reported pEC50.
# pEC50: negative log10 of molar concentration; output just the value

Indicate its recorded pEC50; the compound in question is CCn1c(CO)nn(-c2nc(O[C@@H](C)C(F)(F)F)c(C(=O)Nc3ncccc3Cl)cc2F)c1=O [Example 54]
8.16

Please report pEC50 for the following compound: CCn1c(CO)nn(-c2nc(O[C@@H](C)C(F)(F)F)c(C(=O)Nc3c(Cl)n[nH]c3C(F)(F)F)cc2F)c1=O [Example 112]
9.52

Supply pEC50 value. Item: CCn1c(CO)nn(-c2nc(O[C@@H](C)C(F)(F)F)c(C(=O)Nc3c(C)noc3C)cc2F)c1=O [Example 46]
7.49

Check the records and state pEC50 for CCn1c(CO)nn(-c2nc(O[C@@H](C)C(F)(F)F)c(C(=O)Nc3c(OC)n[nH]c3C)cc2F)c1=O [Example 121]
8.61

Read off the recorded pEC50 for CCn1c(CO)nn(-c2nc(O[C@@H](C)C(F)(F)F)c(C(=O)Nc3c(OC)ncnc3OC)cc2F)c1=O [Example 94]
7.32

---

biological target: human DHODH (Homo sapiens); assay: DHODH Enzymatic Assay; conditions: purified human DHODH; DCIP absorbance, end-point mode
Each item that follows carries a reported pEC50.
Hey, just a heads up that pEC50 is the negative log base 10 of the concentration in molar.

Below, 3 compounds whose answers are already recorded.
Given the compound CCn1c(CO)nn(-c2nc(O[C@@H](C)C(F)(F)F)c(C(=O)Nc3ccccc3F)cc2F)c1=O , write its reported pEC50.
8.21

Annotate the compound CCn1c(CO)nn(-c2nc(O[C@@H](C)C(F)(F)F)c(C(=O)Nc3c(N(C)C)ccnc3OC)cc2F)c1=O with its measured pEC50.
8.44

Tell me its pEC50 given CCn1c(CO)nn(-c2nc(O[C@@H](C)C(F)(F)F)c(C(=O)Nc3cc(C)cnc3Cl)cc2F)c1=O as the entry.
8.24

More entries:
Provide measured pEC50 value, entry: CCn1c(CF)nn(-c2nc(OC(C)C)c(C(=O)Nc3c(C)ccnc3Cl)cc2F)c1=O
8.94

---

molecular target: UniProtKB Q02127; assay: DHODH Enzymatic Assay; conditions: purified human DHODH; DCIP absorbance, end-point mode
pEC50: −log10 of the molar value.
Respond with T for pEC50 values of 8 and above, F for values below.

# check: pEC50 of CCn1c(CO)nn(-c2nc(O[C@@H](C)C(F)(F)F)c(C(=O)Nc3nc(OC)ccc3F)cc2F)c1=O is greater than or equal to 8
T

API: above_or_equal(metric=pEC50, cutoff=8) for item CCn1c(C(C)O)nn(-c2nc(O[C@@H](C)C(F)(F)F)c(C(=O)Nc3c(C)n[nH]c3C(F)(F)F)cc2F)c1=O (mixture of isomers)
T

API: above_or_equal(metric=pEC50, cutoff=8) for item Cc1ccnc(Cl)c1NC(=O)c1cc(F)c(-n2nc(CF)n(C(C)C)c2=O)nc1O[C@@H](C)C(F)(F)F
T

Could you please find out whether CCn1c(CO)nn(-c2nc(O[C@@H](C)C(F)(F)F)c(C(=O)Nc3c(Cl)n[nH]c3Cl)cc2F)c1=O has pEC50 that meets 8 or exceeds it?
T

Dear colleague, could you confirm whether CCn1c(CO)nn(-c2nc(O[C@@H](C)C(F)(F)F)c(C(=O)Nc3cnccc3Cl)cc2F)c1=O has pEC50 at or above 8?
T

Does the reported pEC50 for CCn1c(CO)nn(-c2nc(O[C@@H](C)C(F)(F)F)c(C(=O)Nc3c(Cl)ccnc3C)cc2F)c1=O fall at or above the 8 mark?
T

More entries:
Hello, I need to know if CCCn1c(CF)nn(-c2nc(O[C@@H](C)C(F)(F)F)c(C(=O)Nc3c(C)n[nH]c3Cl)cc2F)c1=O has measured pEC50 not below 8. Thanks!
T

Is pEC50 at least 8? Consider CCn1c(CO)nn(-c2nc(O[C@@H](C)C(F)(F)F)c(C(=O)Nc3cc(C(F)F)ncc3F)cc2F)c1=O
F

Entry CCn1c(CO)nn(-c2nc(O[C@@H](C)C(F)(F)F)c(C(=O)Nc3c(OC)cncc3OC)cc2F)c1=O : is its pEC50 no less than 8?
F

---

test system: MOLM-13 cells; assay: MOLM-13 Cellular Assay; type: cell-based; conditions: Homo sapiens, 72 hours exposure, cell viability by CellTiter-Glo
pEC50: −log10 of the molar value.
experimental_readout: pEC50

Complete the entry with pEC50 for CCn1c(CO)nn(-c2nc(O[C@@H](C)C(F)(F)F)c(C(=O)Nc3cc(C#N)cnc3Cl)cc2F)c1=O
< 7.00

Check the records and state pEC50 for CCOc1ncc(F)c(NC(=O)c2cc(F)c(-n3nc(CO)n(CC)c3=O)nc2O[C@@H](C)C(F)(F)F)n1
< 7.00

Entry CCn1c(CO)nn(-c2nc(O[C@@H](C)C(F)(F)F)c(C(=O)Nc3c(Cl)ccc(=O)n3C)cc2F)c1=O needs its pEC50 filled in; supply it.
< 7.00

---

tested on: MOLM-13 cells; test: MOLM-13 Cellular Assay; type: cell-based; details: Homo sapiens, 72 hours exposure, cell viability by CellTiter-Glo
pEC50: −log10 of the molar value.
Measured pEC50 accompanies every entry in the list below.

# annotated cases, reported pEC50 shown
Query pEC50 for CCn1c(CO)nn(-c2nc(O[C@@H](C)C(F)(F)F)c(C(=O)Nc3conc3C)cc2F)c1=O [Example 45]
< 7.00

Please give measured pEC50 of the following entry: CCn1c(CO)nn(-c2nc(O[C@@H](C)C(F)(F)F)c(C(=O)Nc3snc(C)c3Br)cc2F)c1=O [Example 31]
< 7.00

Turning now to a further molecule:
Please look at this molecule and report its pEC50: CCn1c(CO)nn(-c2nc(O[C@@H](C)C(F)(F)F)c(C(=O)Nc3c(C)ccn(C)c3=O)cc2F)c1=O [Example 53]
< 7.00

---

test system: MOLM-13 cells; assay: MOLM-13 Cellular Assay; type: cell-based; settings: Homo sapiens, 72 hours exposure, cell viability by CellTiter-Glo
In this section we review reported EC50 values for a set of compounds.
Report only the number, with the unit nM understood.

Determine its reported EC50: CCn1c(CO)nn(-c2nc(O[C@@H](C)C(F)(F)F)c(C(=O)Nc3cc(C)ccc3Cl)cc2F)c1=O
0.553

Give the reported value of EC50 for this record: CCn1c(CO)nn(-c2nc(O[C@@H](C)C(F)(F)F)c(C(=O)Nc3c(C)n[nH]c3C)cc2F)c1=O
21.1

Tell me EC50 reported for CCn1c(CO)nn(-c2nc(O[C@@H](C)C(F)(F)F)c(C(=O)Nc3c(Cl)n[nH]c3Cl)cc2F)c1=O
0.208

Please indicate EC50 recorded for CCn1c(CO)nn(-c2nc(O[C@@H](C)C(F)(F)F)c(C(=O)Nc3[nH]c(=O)ccc3Cl)cc2F)c1=O
90

Give EC50 for CCn1c(CO)nn(-c2nc(O[C@@H](C)C(F)(F)F)c(C(=O)Nc3c(Cl)ccc(C)c3C)cc2F)c1=O
0.73

---

target: human DHODH (Homo sapiens, UniProt Q02127); test: DHODH Enzymatic Assay; conditions: purified human DHODH; DCIP absorbance, end-point mode
Sequence (Q02127 whole entry): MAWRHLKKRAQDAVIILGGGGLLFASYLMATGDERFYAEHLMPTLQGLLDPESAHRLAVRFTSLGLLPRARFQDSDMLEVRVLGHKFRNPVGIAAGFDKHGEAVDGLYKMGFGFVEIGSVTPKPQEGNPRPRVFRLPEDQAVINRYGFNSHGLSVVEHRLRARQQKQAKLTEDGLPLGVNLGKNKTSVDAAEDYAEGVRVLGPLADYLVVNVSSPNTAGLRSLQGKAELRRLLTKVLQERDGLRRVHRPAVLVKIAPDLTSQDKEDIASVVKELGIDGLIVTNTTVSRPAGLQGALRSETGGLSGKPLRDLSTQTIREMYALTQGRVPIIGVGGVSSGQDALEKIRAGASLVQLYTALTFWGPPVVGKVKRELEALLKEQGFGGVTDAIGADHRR
Could you please classify the records by EC50 using these ranges: bottom range = under 3 nM, center range = from 3 nM up to 20 nM, top range = 20 nM and over

A selection of reference data follows.
Hey, which category is Cc1[nH]nc(Cl)c1NC(=O)c1cc(F)c(-n2nc(CF)n(CCCO)c2=O)nc1O[C@@H](C)C(F)(F)F in, do you know?
center range

Tag the class for CCn1c(CO)nn(-c2nc(O[C@@H](C)C(F)(F)F)c(C(=O)Nc3snc(C)c3Cl)cc2F)c1=O
top range

Class for CCn1c(CO)nn(-c2nc(O[C@@H](C)C(F)(F)F)c(C(=O)Nc3cc(C)cnc3F)cc2F)c1=O ?
top range

Exam item: assign CCn1c(CO)nn(-c2nc(O[C@@H](C)C(F)(F)F)c(C(=O)Nc3c(OC)ccnc3OC)cc2F)c1=O to the correct category.
center range

The entry to classify is CCn1c(COC)nn(-c2nc(O[C@@H](C)C(F)(F)F)c(C(=O)Nc3c(F)cccc3Cl)cc2F)c1=O ; which class holds it?
bottom range

New cases:
Assign a category based on measured EC50 for CCn1c(CO)nn(-c2nc(O[C@@H](C)C(F)(F)F)c(C(=O)Nc3c(C)cc(OC)nc3Cl)cc2F)c1=O and give only the class name.
bottom range

Band for the recorded EC50 of CCOc1ccnc(NC(=O)c2cc(F)c(-n3nc(CO)n(CC)c3=O)nc2O[C@@H](C)C(F)(F)F)c1Cl ?
center range

Exercise: read the entry CCn1c(CO)nn(-c2nc(O[C@@H](C)C(F)(F)F)c(C(=O)Nc3cc(C#N)ccc3Cl)cc2F)c1=O and state which class it falls under.
bottom range

Which bin should I file CCn1c(CO)nn(-c2nc(O[C@@H](C)C(F)(F)F)c(C(=O)Nc3c(Cl)c[nH]c(=O)c3Cl)cc2F)c1=O under?
bottom range

Hello team, could you let me know which band the following compound falls into: CCn1c(CO)nn(-c2nc(O[C@@H](C)C(F)(F)F)c(C(=O)Nc3ccnnc3OC)cc2F)c1=O
top range

Class? Entry: CCn1c(CO)nn(-c2nc(O[C@@H](C)C(F)(F)F)c(C(=O)Nc3c(C)cnc(OC)c3C)cc2F)c1=O
bottom range

Tag the class for CCn1c(CO)nn(-c2nc(O[C@@H](C)C(F)(F)F)c(C(=O)Nc3ccc(C)nc3Cl)cc2F)c1=O
center range

Hello team, could you let me know which band the following compound falls into: CCn1c(CO)nn(-c2nc(O[C@@H](C)C(F)(F)F)c(C(=O)Nc3c(OC)n[nH]c3C)cc2F)c1=O
top range

Reference source: patent US20220089568A1
